Reference for the values: ChEMBL document CHEMBL3046413

mortality at 1000 µg/mL listing for selected molecules.
Test system: Mythimna separata
TEST: Insecticidal activity against Mythimna separata (Oriental armyworm) in wheat leaves assessed as mortality rate at 1 mg/mL at 25 degC measured after 10 days by leaf-dipping method relative to control
Type: functional
EXPERIMENTAL CONDITIONS: 240 h
Could you give me the number in %? Just the number is fine.

MOLECULE	RESULT VALUE
CC1=C2C(=O)O[C@@H](c3ccoc3)[C@]2(C)CC[C@H]1OC(=O)c1ccc(C#N)cc1	20.7
CC1=C2C(=O)O[C@@H](c3ccoc3)[C@]2(C)CCC1 [FRAXINELLONE]	20.7

Now take the following molecule into account.
Give the reported mortality at 1000 µg/mL for this molecule. `CC1=C2C(=O)O[C@@H](c3ccoc3)[C@]2(C)CC[C@H]1OC(=O)c1ccco1` 31
